Reference for the values: patent US4391816A

- TARGET_SYSTEM: aldose reductase (Bos taurus, UniProt P16116)
- Construct: preparation of the enzyme from bovine lens; from tissue; host or cells: bovine lens
- TEST_DESCRIPTION: in vitro aldose reductase inhibition (enzyme from bovine lens, modified Hayman and Kinoshita procedure)
- Type: biochemical
- MEASUREMENT_CONDITIONS: 10^-6 molar; read-out: % Inhibition at Different Molar Concentrations (in vitro), 10^-6
READOUT: inhibition at 1 µM

Worked set:
TEST_SMILES	TARGET_SYSTEM	inhibition at 1 µM
COc1c(Cl)cc(C(=S)N(C)CC(=O)O)c2cccc(S(=O)(=O)N(C)C)c12	aldose reductase (Bos taurus, UniProt P16116)	67%
CN(CC(=O)O)C(=S)c1cccc2ccc(Br)cc12	aldose reductase (Bos taurus, UniProt P16116)	58%
COc1ccc(C(=S)N(C)CC(=O)O)c2cccc(S(=O)(=O)N(C)C)c12	aldose reductase (Bos taurus, UniProt P16116)	35%

// batch mode: one inhibition at 1 µM value per listed entry
1. O=C(O)[C@@H]1CCCN1C(=S)c1cccc2c(Br)cccc12
2. O=C(O)CN(CC(=O)O)C(=S)c1cccc2c(Br)cccc12
3. O=C(O)CN(C(=S)c1cccc2c(Br)cccc12)c1ccc(Cl)cc1

26%
7%
80%

// batch mode: one inhibition at 1 µM value per listed entry
1. CN(CC(=O)O)C(=S)c1cc(Br)cc2ccccc12
2. CN(CC(=O)O)C(=S)c1cccc2cc(Br)ccc12

74%
75%

###

Task for the reader: assign each of the following compounds its reported inhibition at 10 µM.
- TARGET_SYSTEM: aldose reductase (Bos taurus)
- Construct: preparation of the enzyme from bovine lens; from tissue; host or cells: bovine lens
- TEST_DESCRIPTION: in vitro aldose reductase inhibition (enzyme from bovine lens, modified Hayman and Kinoshita procedure)
- Format: biochemical
- MEASUREMENT_CONDITIONS: 10^-5 molar; read-out: % Inhibition at Different Molar Concentrations (in vitro), 10^-5
Include the unit right after the number.

COMPOUND	inhibition at 10 µM
CN(CC(=O)O)C(=S)c1cccc2cc(Br)ccc12 [R^1=CH3, R^2=H, R^3=6-Br, n=O]	91%
CN(CC(=O)O)C(=S)c1cccc2ccc(Br)cc12 [R^1=CH3, R^2=H, R^3=7-Br, n=O]	86%
O=C(O)[C@@H]1CCCN1C(=S)c1cccc2c(Br)cccc12 [R^1 R^2=CH2 CH2 CH2, R^3=5-Br, n=O]	56%
CN(CC(=O)O)C(=S)c1cc(Br)cc2ccccc12 [R^1=CH3, R^2=H, R^3=3-Br, n=O]	90%
COc1c(Cl)cc(C(=S)N(C)CC(=O)O)c2cccc(S(=O)(=O)N(C)C)c12	91%

// batch mode: one inhibition at 10 µM value per listed entry
1. COc1ccc(C(=S)N(C)CC(=O)O)c2cccc(S(=O)(=O)N(C)C)c12
2. CN(CCCC(=O)O)C(=S)c1cccc2c(Br)cccc12 [R^1=CH3, R^2=H, R^3=5-Br, n=2]
3. CC(C(=O)O)N(C)C(=S)c1cccc2c(Br)cccc12 (stereo not shown) [R^1=CH3, R^2=CH3, R^3=5-Br, n=O *]
4. O=C(O)CN(C(=S)c1cccc2c(Br)cccc12)c1ccc(Cl)cc1 [R^1=4-Cl--C6 H4, R^2=H, R^3=5-Br, n=O]
5. O=C(O)CN(CC(=O)O)C(=S)c1cccc2c(Br)cccc12 [R^1=CH2 COOH, R^2=H, R^3=5-Br, n=O]

1. 80%
2. 37%
3. 18%
4. 86%
5. 46%
